These data points were gathered from patent US9108999B2.

# Experiment summary: in vitro
# Measurement context: human
Property name: CC50 at 3 days

The examples below pair each entry with its known result.
Molecule	Property name	Measured
CC(C)OC(=O)[C@H](C)N[P@](=O)(OC[C@@]1(F)O[C@@H](n2cc(Br)c(=O)[nH]c2=O)[C@](C)(F)[C@@H]1O)Oc1ccc2ccccc2c1 [Compound I-13]	CC50 at 3 days	> 100 µM
CC(C)OC(=O)[C@H](C)N[P@](=O)(OC[C@@]1(F)O[C@@H](n2cc(Br)c(=O)[nH]c2=O)[C@](C)(F)[C@@H]1O)Oc1cccc2ccccc12 [Compound I-12]	CC50 at 3 days	34.8 µM
CCC(=O)O[C@H]1[C@@](C)(F)[C@H](n2ccc(=O)[nH]c2=O)O[C@]1(F)COP(=O)(N[C@@H](C)C(=O)OC(C)C)Oc1cccc2ccccc12 (stereo partly shown) [Compound I-5]	CC50 at 3 days	67.8 µM
CC(C)OC(=O)[C@H](C)NP(=O)(OC[C@@]1(F)O[C@@H](n2ccc(=O)[nH]c2=O)[C@](C)(F)[C@@H]1O)Oc1ccc2ccccc2c1 (stereo partly shown) [Compound I-3]	CC50 at 3 days	> 100 µM
CC(C)OC(=O)[C@H](C)N[P@](=O)(OC[C@@]1(F)O[C@@H](n2ccc(=O)[nH]c2=O)[C@](C)(F)[C@@H]1O)Oc1cccc2ccccc12 [Compound I-9]	CC50 at 3 days	> 100 µM
CC(C)OC(=O)[C@H](C)N[P@](=O)(OC[C@@]1(F)O[C@@H](n2ccc(=O)[nH]c2=O)[C@](C)(F)[C@@H]1O)Oc1ccc2ccccc2c1 [Compound I-6]	CC50 at 3 days	> 100 µM

Field request: CC50 at 3 days | item: CC(C)OC(=O)[C@H](C)NP(=O)(OC[C@@]1(F)O[C@@H](n2cc(Br)c(=O)[nH]c2=O)[C@](C)(F)[C@@H]1O)Oc1ccc2ccccc2c1 (stereo partly shown) [Compound I-16]
> 100 µM

###

Assignment: determine reported CC50 for the given molecules.
# Tested on: HCV replicon cells (2209-23)
# Measurement context: read-out: WST-1 Cytotoxicity CC50; replicon cells 2209-23, three days incubation, WST-1 OD 450 nm
Answers are plain numbers, in µM.

Structure as smiles	Study system	Measured
CC(C)OC(=O)[C@H](C)N[P@@](=O)(OC[C@@]1(F)O[C@@H](n2cc(Br)c(=O)[nH]c2=O)[C@](C)(F)[C@@H]1O)Oc1ccc2ccccc2c1	HCV replicon cells (2209-23)	38.5

Please look up its CC50: CC(C)OC(=O)[C@H](C)N[P@@](=O)(OC[C@@]1(F)O[C@@H](n2cc(Br)c(=O)[nH]c2=O)[C@](C)(F)[C@@H]1O)Oc1cccc2ccccc12
50.8

###

# Experiment summary: in vitro
# Measurement context: human
Property name: CC50 at 3 days

// solved cases for CC50 at 3 days follow
Compound	Measured
CC(C)OC(=O)[C@H](C)N[P@](=O)(OC[C@@]1(F)O[C@@H](n2ccc(=O)[nH]c2=O)[C@](C)(F)[C@@H]1O)Oc1ccccc1	> 100 µM
CC(C)OC(=O)[C@H](C)N[P@@](=O)(OC[C@@]1(F)O[C@@H](n2ccc(=O)[nH]c2=O)[C@](C)(F)[C@@H]1O)Oc1ccccc1	95.6 µM

Give CC50 at 3 days for each of the items listed below.
1. CC(C)OC(=O)[C@H](C)NP(=O)(OC[C@@]1(F)O[C@@H](n2ccc(=O)[nH]c2=O)[C@](C)(F)[C@@H]1O)Oc1cccc2ccccc12 (some centres unmarked)
2. CC(C)OC(=O)[C@H](C)NP(=O)(OC[C@@]1(F)O[C@@H](n2ccc(=O)[nH]c2=O)[C@](C)(F)[C@@H]1O)Oc1ccccc1 (some centres unmarked)
3. CC(C)OC(=O)[C@H](C)NP(=O)(OC[C@@]1(F)O[C@@H](n2ccc(=O)[nH]c2=O)[C@](C)(F)[C@@H]1OP(=O)(N[C@@H](C)C(=O)OC(C)C)Oc1ccc2ccccc2c1)Oc1ccc2ccccc2c1 (some centres unmarked)

1. > 100 µM
2. > 100 µM
3. > 100 µM
